These measurements were taken from ChEMBL document CHEMBL4229469.

assay-explanation: Solubility of the compound in pH 4 phosphate buffered saline
attribute-measured: solubility (µM)
Numbers only; they are read as µM.

Challenge: Quick check: solubility of CCCc1cc(C(=O)OC)c(NC(=O)C2CCN(C(C)=O)CC2)s1 ?
Response given: 21.1

###

target-desc: UniProt Q9UBZ9
Sequence (Q9UBZ9 whole entry): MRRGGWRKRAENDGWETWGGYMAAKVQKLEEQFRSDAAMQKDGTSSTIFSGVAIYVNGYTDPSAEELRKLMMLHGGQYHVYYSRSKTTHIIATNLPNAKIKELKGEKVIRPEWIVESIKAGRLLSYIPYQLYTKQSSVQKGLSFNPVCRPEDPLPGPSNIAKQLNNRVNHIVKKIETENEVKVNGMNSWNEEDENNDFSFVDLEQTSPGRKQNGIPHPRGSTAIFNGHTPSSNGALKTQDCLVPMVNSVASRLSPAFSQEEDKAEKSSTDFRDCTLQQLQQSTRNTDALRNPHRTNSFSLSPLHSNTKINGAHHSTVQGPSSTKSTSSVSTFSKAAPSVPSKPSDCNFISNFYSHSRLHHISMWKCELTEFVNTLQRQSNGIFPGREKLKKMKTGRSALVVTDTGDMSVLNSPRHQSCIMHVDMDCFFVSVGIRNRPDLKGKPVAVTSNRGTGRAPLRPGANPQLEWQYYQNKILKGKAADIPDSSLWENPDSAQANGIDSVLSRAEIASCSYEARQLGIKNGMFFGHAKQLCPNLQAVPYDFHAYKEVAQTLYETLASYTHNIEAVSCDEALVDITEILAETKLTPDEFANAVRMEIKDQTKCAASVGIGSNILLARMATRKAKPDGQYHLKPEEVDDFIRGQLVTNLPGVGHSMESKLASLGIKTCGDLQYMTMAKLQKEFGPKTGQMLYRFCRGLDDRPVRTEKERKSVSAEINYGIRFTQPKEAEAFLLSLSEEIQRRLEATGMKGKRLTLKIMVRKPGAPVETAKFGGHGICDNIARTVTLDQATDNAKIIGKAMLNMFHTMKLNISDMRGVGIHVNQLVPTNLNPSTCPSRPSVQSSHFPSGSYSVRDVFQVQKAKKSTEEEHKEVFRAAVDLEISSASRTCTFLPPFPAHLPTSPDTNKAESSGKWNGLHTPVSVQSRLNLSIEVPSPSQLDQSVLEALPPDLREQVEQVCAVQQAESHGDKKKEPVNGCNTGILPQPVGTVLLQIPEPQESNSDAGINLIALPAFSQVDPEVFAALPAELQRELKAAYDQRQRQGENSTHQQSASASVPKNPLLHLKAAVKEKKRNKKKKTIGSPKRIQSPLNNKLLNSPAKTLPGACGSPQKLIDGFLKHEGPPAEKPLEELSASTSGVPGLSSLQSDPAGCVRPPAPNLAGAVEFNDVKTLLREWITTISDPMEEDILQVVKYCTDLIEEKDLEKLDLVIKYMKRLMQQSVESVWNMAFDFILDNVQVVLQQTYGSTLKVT
assay-explanation: Displacement of FAM-labelled polkappa-RIR peptide from recombinant human C-terminal Rev1 (1158 to 1251 residues) expressed in Escherichia coli BL21(DE3) after 1 hr by fluorescence polarization assay
attribute-measured: pKi
Entry type: numeric. Quantity: pKi, the -log10 of concentration in molar units.

Reference set (4 entries):
{"columns": ["molecule-smiles", "target-desc", "pKi"],
 "data": [
  ["CCc1ccc(NC(=O)CN2CCN(c3ccc(F)cc3)CC2)cc1", "UniProt Q9UBZ9", 5.16],
  ["Cc1cccc(N2CCN(CC(=O)Nc3ccc(F)cc3)CC2)c1C", "UniProt Q9UBZ9", 4.83],
  ["COC(=O)c1cc(C)sc1NC(=O)C1CCN(C(C)=O)CC1", "UniProt Q9UBZ9", 5.13],
  ["COc1cc2c(cc1OC)CN(Cc1ccc(OCc3ccccc3)cc1)CC2", "UniProt Q9UBZ9", 4.84]
]}

// next entry
Challenge: Lab request: please report pKi under test system UniProt Q9UBZ9 for CC(=O)N1CCC(C(=O)Nc2sc3c(c2C(=O)NC2CC2)CCCC3)CC1
Response given: 4.50
